Provide the reported IC50 of each item.
Assay System: Mitogen-activated protein kinase 14 (Homo sapiens)
Method Description: Inhibitory activity against Mitogen-activated protein kinase p38 alpha 2
Quote the value and follow it with the unit of measurement.

Query block: Requested read-out IC50, target or system Mitogen-activated protein kinase 14 (Homo sapiens), entry Cn1nc(C(C)(C)C)cc1NC(=O)Nc1ccc(CCc2ccncc2)cc1
Result block: 430 nM

Query block: Now give it for Cn1nc(C(C)(C)C)cc1NC(=O)Nc1ccc(Cc2ccc(NC(=O)OC(C)(C)C)cc2)cc1 too.
Result block: 87 nM

Query block: Now give it for CCOC(=O)Nc1ccc(Oc2ccc(NC(=O)Nc3cc(C(C)(C)C)nn3C)cc2)cc1 too.
Result block: 33 nM

Query block: Now give it for Cn1nc(C(C)(C)C)cc1NC(=O)Nc1ccc(CSc2ccncc2)cc1 too.
Result block: 44 nM

Query block: Now give it for CC(C)CC(=O)Nc1ccc(Cc2ccc(NC(=O)Nc3cc(C(C)(C)C)nn3C)cc2)cc1 too.
Result block: 37 nM

====

Provide the reported solubility of each item.
Method Description: Solubility at pH 2.0
Assay type: physicochemical
Test Conditions: buffer
Just the number in µg/mL, nothing appended.

Query block: # query: solubility of entry Cn1nc(C(C)(C)C)cc1NC(=O)Nc1ccc(Cc2ccncc2)cc1
Result block: 2000

Query block: Now give it for CCOC(=O)Nc1ccc(Oc2ccc(NC(=O)Nc3cc(C(C)(C)C)nn3C)cc2)cc1 too.
Result block: 77

Query block: Now give it for Cn1nc(C(C)(C)C)cc1NC(=O)Nc1ccc(Sc2ccncc2)cc1 too.
Result block: 1660

Query block: Now give it for Cn1nc(C(C)(C)C)cc1NC(=O)Nc1ccc(CSc2ccncc2)cc1 too.
Result block: 5160

====

Assay System: Mitogen-activated protein kinase 14 (Homo sapiens, UniProt Q16539)
Sequence (Q16539 whole entry): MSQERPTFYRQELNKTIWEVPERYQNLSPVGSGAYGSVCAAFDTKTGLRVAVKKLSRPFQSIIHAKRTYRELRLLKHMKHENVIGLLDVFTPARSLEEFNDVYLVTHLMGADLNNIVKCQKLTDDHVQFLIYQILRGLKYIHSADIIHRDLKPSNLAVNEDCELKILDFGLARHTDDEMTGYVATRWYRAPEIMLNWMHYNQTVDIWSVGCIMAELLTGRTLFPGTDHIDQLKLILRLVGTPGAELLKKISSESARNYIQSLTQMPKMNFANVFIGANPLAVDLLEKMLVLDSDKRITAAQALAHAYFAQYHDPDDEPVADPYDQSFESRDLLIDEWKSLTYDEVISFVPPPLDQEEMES
Method Description: Inhibitory activity against Mitogen-activated protein kinase p38 alpha 2
Provide the reported pIC50 of each item.
In simple prose, pIC50 is minus the logarithm base ten of a concentration in moles per litre.

Query block: # query: pIC50 of entry Cn1nc(C(C)(C)C)cc1NC(=O)Nc1ccc(Cc2ccc(NC(=O)CCC(=O)O)cc2)cc1
Result block: 6.70

Query block: Now give it for Cn1nc(C(C)(C)C)cc1NC(=O)Nc1ccc(Oc2ccccc2)cc1 too.
Result block: 6.57

Query block: Now give it for Cn1nc(C(C)(C)C)cc1NC(=O)Nc1ccc(Oc2ccc(C(C)(C)C)cc2)cc1 too.
Result block: 6.74

Query block: Now give it for CC(C)CC(=O)Nc1ccc(Oc2ccc(NC(=O)Nc3cc(C(C)(C)C)nn3C)cc2)cc1 too.
Result block: 7.35

Query block: Now give it for Cn1nc(C(C)(C)C)cc1NC(=O)Nc1ccc(Oc2ccc(N)cc2)cc1 too.
Result block: 6.51

Query block: Now give it for Cn1nc(C(C)(C)C)cc1NC(=O)Nc1ccc(Sc2ccncc2)cc1 too.
Result block: 7.89

Query block: Now give it for CC(=O)Nc1ccc(Oc2ccc(NC(=O)Nc3cc(C(C)(C)C)nn3C)cc2)cc1 too.
Result block: 6.63

Query block: Now give it for Cn1nc(C(C)(C)C)cc1NC(=O)Nc1ccc(Oc2ccc(OCc3ccccc3)cc2)cc1 too.
Result block: 6.96

Query block: Now give it for Cn1nc(C(C)(C)C)cc1NC(=O)Nc1ccc(Cc2ccc(N)cc2)cc1 too.
Result block: 6.54

Query block: Now give it for CCCOc1ccc(Sc2ccc(NC(=O)Nc3cc(C(C)(C)C)nn3C)cc2)cc1 too.
Result block: 7.24

Query block: Now give it for Cn1nc(C(C)(C)C)cc1NC(=O)Nc1ccc(Sc2ccc(O)cc2)cc1 too.
Result block: 7.46

Query block: Now give it for CC(C)OC(=O)Nc1ccc(Oc2ccc(NC(=O)Nc3cc(C(C)(C)C)nn3C)cc2)cc1 too.
Result block: 7.27

====

Test system: SW1353
Method Description: TNF-alpha-induced IL-6 production in SW1353 cells
Type: functional, cell-based
Test Conditions: Homo sapiens
Provide the reported pIC50 of each item.
In simple prose, pIC50 is minus the logarithm base ten of a concentration in moles per litre.

Query block: # query: pIC50 of entry Cn1nc(C(C)(C)C)cc1NC(=O)Nc1ccc(Sc2ccc(O)cc2)cc1
Result block: 5.96

Query block: Now give it for CC(C)CC(=O)Nc1ccc(Oc2ccc(NC(=O)Nc3cc(C(C)(C)C)nn3C)cc2)cc1 too.
Result block: 6.50

Query block: Now give it for CCOC(=O)Nc1ccc(Oc2ccc(NC(=O)Nc3cc(C(C)(C)C)nn3C)cc2)cc1 too.
Result block: 7.06

Query block: Now give it for CCCOc1ccc(Sc2ccc(NC(=O)Nc3cc(C(C)(C)C)nn3C)cc2)cc1 too.
Result block: 6.63
